Target: hTMPK (Homo sapiens, UniProt P23919)
Sequence (P23919 whole entry): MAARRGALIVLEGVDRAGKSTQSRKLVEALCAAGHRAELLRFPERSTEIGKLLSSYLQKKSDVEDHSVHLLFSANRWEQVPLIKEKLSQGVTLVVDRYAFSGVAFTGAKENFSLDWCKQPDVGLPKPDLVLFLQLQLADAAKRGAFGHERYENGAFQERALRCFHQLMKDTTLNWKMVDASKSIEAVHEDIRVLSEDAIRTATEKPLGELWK
observation_type: pIC50
Just the number, please; pIC50 means minus log10 of the concentration in mol/L.

Quick check: pIC50 of "CCOC(=O)N1CCN(C(=O)Cn2sc3nc(C)cc(C)c3c2=O)CC1" ?
6.14
